test: Ratio of drug concentration in brain to plasma of P-gp knock out Sprague-Dawley rat; conditions: brain
What Kp was measured for each of the following?
One number for each entry.

Consider the reported Kp for these molecules:
# Molecular String, Kp
records = [
    ("COc1ccc(CCN2CCC(Nc3nc4ccccc4n3Cc3ccc(F)cc3)CC2)cc1", 38.9),
    ("Cc1nc(Nc2ncc(C(=O)Nc3c(C)cccc3Cl)s2)cc(N2CCN(CCO)CC2)n1.O", 0.061),
    ("COc1ccc2c(c1)c(CC(=O)O)c(C)n2C(=O)c1ccc(Cl)cc1", 0.009),
]

Kindly review the next molecule as well.
Respond only with Kp recorded for CC[C@H]1OC(=O)[C@H](C)[C@@H](O[C@H]2C[C@@](C)(OC)[C@@H](O)[C@H](C)O2)[C@H](C)[C@@H](O[C@@H]2O[C@H](C)C[C@H](N(C)C)[C@H]2O)[C@](C)(OC)C[C@@H](C)C(=O)[C@H](C)[C@@H](O)[C@]1(C)O
1.96

###

assay: Ratio of drug concentration in brain to plasma of P-gp knock out Sprague-Dawley rat; details: brain/plasma
Assign True to entries whose Kp meets or exceeds 0.5; assign False to the rest.

# Molecule, Discrete Label
measured = [
    ("O=C(O)CCCN1CCC(OC(c2ccc(Cl)cc2)c2ccccn2)CC1 (configuration not stated)", "False"),
]

Does CCN(CC)CCNC(=O)c1c(C)[nH]c(/C=C2\C(=O)Nc3ccc(F)cc32)c1C have a reported Kp of at least 0.5?
False

###

assay: Ratio of drug concentration in brain to plasma of P-gp knock out Sprague-Dawley rat; conditions: brain
Parameter: Kp
Numbers only.

# Compound, Kp
data = [
    ("CC(C)N(CCC(C(N)=O)(c1ccccc1)c1ccccn1)C(C)C (stereo not drawn) [DISOPYRAMIDE]", 1.02),
    ("COc1cc([C@@H]2c3cc4c(cc3[C@@H](O[C@@H]3O[C@@H]5CO[C@@H](C)O[C@H]5[C@H](O)[C@H]3O)[C@H]3COC(=O)[C@H]23)OCO4)cc(OC)c1O [ETOPOSIDE]", 0.037),
]

Could you now look at the following compound, please?
Input CC(C)(C)NC(=O)[C@@H]1C[C@@H]2CCCC[C@@H]2CN1C[C@@H](O)[C@H](Cc1ccccc1)NC(=O)[C@H](CC(N)=O)NC(=O)c1ccc2ccccc2n1 , output reported Kp.
0.067

###

test: Ratio of drug concentration in brain to plasma of P-gp knock out Sprague-Dawley rat; conditions: brain
Parameter: Kp
Answers are plain numbers.

Solved entries:
# Compound, Kp
data = [
    ("Cc1nc2n(c(=O)c1CCN1CCC(c3noc4cc(F)ccc34)CC1)CCCC2 [RISPERIDONE]", 1.56),
    ("CN(C)CCc1c[nH]c2ccc(C[C@H]3COC(=O)N3)cc12 [ZOLMITRIPTAN]", 0.043),
]

Now consider a different compound.
Please supply the value of reported Kp for the item CCN(CC)CCNC(=O)c1cc(Cl)c(N)cc1OC [METOCLOPRAMIDE]
5.05

###

assay: Unbound plasma concentration in P-gp knock out Sprague-Dawley rat at 5 mg/ml/kg, po measured upto 4 hrs by LC-MS analysis; settings: plasma
Parameter: fraction unbound at 4 h
Give bare numbers.

Here are 5 compounds together with their reported answers.
# Compound, Endpoint Value
records = [
    ("CC(C)CN(C[C@@H](O)[C@H](Cc1ccccc1)NC(=O)O[C@H]1CCOC1)S(=O)(=O)c1ccc(N)cc1", 0.129),
    ("Cc1nc2n(c(=O)c1CCN1CCC(c3noc4cc(F)ccc34)CC1)CCCC2O (stereo not given) [PALIPERIDONE]", 0.047),
    ("Cc1c(O)cccc1C(=O)N[C@@H](CSc1ccccc1)[C@H](O)CN1C[C@H]2CCCC[C@H]2C[C@H]1C(=O)NC(C)(C)C", 0.003),
    ("CC(C)(C)NC(=O)[C@@H]1C[C@@H]2CCCC[C@@H]2CN1C[C@@H](O)[C@H](Cc1ccccc1)NC(=O)[C@H](CC(N)=O)NC(=O)c1ccc2ccccc2n1", 0.005),
    ("CN1CC[C@H](c2c(O)cc(O)c3c(=O)cc(-c4ccccc4Cl)oc23)[C@H](O)C1 [ALVOCIDIB]", 0.051),
]

Hello, I would appreciate it if you could give fraction unbound at 4 h for each entry below.
1. CCN(CC)CCNC(=O)c1c(C)[nH]c(/C=C2\C(=O)Nc3ccc(F)cc32)c1C [SUNITINIB]
2. COc1ccc2c(c1)c(CC(=O)O)c(C)n2C(=O)c1ccc(Cl)cc1 [INDOMETHACIN]
3. Cc1nc(Nc2ncc(C(=O)Nc3c(C)cccc3Cl)s2)cc(N2CCN(CCO)CC2)n1.O [DASATINIB]
4. C[C@@H](Oc1cc(-c2cnn(C3CCNCC3)c2)cnc1N)c1c(Cl)ccc(F)c1Cl [CRIZOTINIB]
5. CC[C@H](CO)Nc1nc(NCc2ccccc2)c2ncn(C(C)C)c2n1 [SELICICLIB]

[0.007, 0.008, 0.026, 0.03, 0.048]

###

assay: Unbound plasma concentration in P-gp knock out Sprague-Dawley rat at 5 mg/ml/kg, po measured upto 4 hrs by LC-MS analysis; conditions: in vivo
Parameter: fraction unbound at 4 h
Numbers only.

These recorded examples may help you get a feel for the data.
# Compound, fraction unbound at 4 h
rows = [
    ("CCN(CC)CCNC(=O)c1cc(Cl)c(N)cc1OC [METOCLOPRAMIDE]", 0.677),
    ("COc1ccc(CCN2CCC(Nc3nc4ccccc4n3Cc3ccc(F)cc3)CC2)cc1", 0.011),
    ("CC[C@H]1OC(=O)[C@H](C)[C@@H](O[C@H]2C[C@@](C)(OC)[C@@H](O)[C@H](C)O2)[C@H](C)[C@@H](O[C@@H]2O[C@H](C)C[C@H](N(C)C)[C@H]2O)[C@](C)(OC)C[C@@H](C)C(=O)[C@H](C)[C@@H](O)[C@]1(C)O", 0.377),
    ("CN(C)CCc1c[nH]c2ccc(C[C@H]3COC(=O)N3)cc12", 0.942),
    ("O=c1[nH]c2ccccc2n1CCCN1CCC(n2c(=O)[nH]c3cc(Cl)ccc32)CC1", 0.029),
]

Would you mind listing fraction unbound at 4 h for each of the following compounds?
1. CC(C)N(CCC(C(N)=O)(c1ccccc1)c1ccccn1)C(C)C (stereo not drawn) [DISOPYRAMIDE]
2. C[C@H]1O[C@@H](O[C@H]2[C@@H](O)C[C@H](O[C@H]3[C@@H](O)C[C@H](O[C@H]4CC[C@@]5(C)[C@H](CC[C@@H]6[C@@H]5C[C@@H](O)[C@]5(C)[C@@H](C7=CC(=O)OC7)CC[C@]65O)C4)O[C@@H]3C)O[C@@H]2C)C[C@H](O)[C@@H]1O
3. COc1cc([C@@H]2c3cc4c(cc3[C@@H](O[C@@H]3O[C@@H]5CO[C@@H](C)O[C@H]5[C@H](O)[C@H]3O)[C@H]3COC(=O)[C@H]23)OCO4)cc(OC)c1O [ETOPOSIDE]

[0.669, 0.583, 0.357]

###

test: Unbound brain-to-plasma concentration ratio in P-gp knock out Sprague-Dawley rat; details: brain/plasma
Parameter: Kp uu
One number for each entry.

# Compound, Kp uu
data = [
    ("Cc1nc2n(c(=O)c1CCN1CCC(c3noc4cc(F)ccc34)CC1)CCCC2", 1.38),
    ("CCN(CC)CCNC(=O)c1c(C)[nH]c(/C=C2\\C(=O)Nc3ccc(F)cc32)c1C", 0.414),
    ("Cc1nc2n(c(=O)c1CCN1CCC(c3noc4cc(F)ccc34)CC1)CCCC2O (stereo unspecified)", 0.443),
]

Please state, for each entry, its recorded Kp uu.
1. Clc1ccc2c(c1)CCc1cccnc1C2=C1CCNCC1
2. Cc1ccc(NC(=O)c2ccc(CN3CCN(C)CC3)cc2)cc1Nc1nccc(-c2cccnc2)n1
3. CN1CC[C@H](c2c(O)cc(O)c3c(=O)cc(-c4ccccc4Cl)oc23)[C@H](O)C1
4. C[C@@H](Oc1cc(-c2cnn(C3CCNCC3)c2)cnc1N)c1c(Cl)ccc(F)c1Cl
5. COc1cc2nc(N3CCN(C(=O)c4ccco4)CC3)nc(N)c2cc1OC
6. CC[C@H](CO)Nc1nc(NCc2ccccc2)c2ncn(C(C)C)c2n1
7. Cc1c(O)cccc1C(=O)N[C@@H](CSc1ccccc1)[C@H](O)CN1C[C@H]2CCCC[C@H]2C[C@H]1C(=O)NC(C)(C)C

0.061
0.041
0.234
0.017
0.164
0.205
0.007

Input O=C(O)CCCN1CCC(OC(c2ccc(Cl)cc2)c2ccccn2)CC1 (stereo unspecified) , output reported Kp uu.
0.018

###

assay: Unbound plasma concentration in P-gp knock out Sprague-Dawley rat at 5 mg/ml/kg, po measured upto 4 hrs by LC-MS analysis; conditions: plasma
I'd be grateful if you could share measured fraction unbound at 4 h for these entries.
One number for each entry.

Illustrative cases are given below, each with its answer.
# Compound, Endpoint Value
data = [
    ("Clc1ccc2c(c1)CCc1cccnc1C2=C1CCNCC1", 0.19),
    ("COc1cc2nc(N3CCN(C(=O)c4ccco4)CC3)nc(N)c2cc1OC", 0.264),
]

I would be grateful if you could provide fraction unbound at 4 h for each of the following entries.
1. C[C@@H]1C[C@H]2[C@@H]3CCC4=CC(=O)C=C[C@]4(C)[C@@]3(F)[C@@H](O)C[C@]2(C)[C@@]1(O)C(=O)CO
2. O=C(O)CCCN1CCC(OC(c2ccc(Cl)cc2)c2ccccn2)CC1 (centres undefined)

1: 0.159; 2: 0.642
